system: human apelin receptor (Homo sapiens, UniProt P35414)
Construct: expressed in transfected cells
Sequence (P35414 1-380): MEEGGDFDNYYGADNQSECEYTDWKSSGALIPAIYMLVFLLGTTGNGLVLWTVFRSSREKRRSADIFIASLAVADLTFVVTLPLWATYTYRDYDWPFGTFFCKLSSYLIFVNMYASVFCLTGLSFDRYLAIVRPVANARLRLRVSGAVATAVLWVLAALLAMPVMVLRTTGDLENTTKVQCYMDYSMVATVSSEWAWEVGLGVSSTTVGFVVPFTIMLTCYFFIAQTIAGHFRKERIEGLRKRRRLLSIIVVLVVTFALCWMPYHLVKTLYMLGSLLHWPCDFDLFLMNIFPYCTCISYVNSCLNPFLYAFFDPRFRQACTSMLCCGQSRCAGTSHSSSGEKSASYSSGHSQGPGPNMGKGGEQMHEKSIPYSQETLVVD
assay comment: Determination of agonism on the human apelin receptor by a calcium fluorescence assay (FLIPR)
Assay type: cell-based
setup conditions: HEK293 cells stably transfected with human apelin receptor and Giaq protein, Fluo-4 calcium fluorescence, read-out: EC50 (APJ agonism)
quantity measured: EC50 (µM)

Worked cases, EC50 given:
chemical structure: CCC(CC)n1c(Cc2cccs2)nc2cc(C(=O)N[C@@H](CC(=O)O)CC(C)C)ccc21
system: human apelin receptor (Homo sapiens, UniProt P35414)
unit descriptor: µM
result: 4.19

chemical structure: CCC(CC)n1c(Cc2cccs2)nc2cc(C(=O)N[C@@H](CC(C)C)C(=O)Nc3cccc(N4CCOCC4)c3)ccc21
system: human apelin receptor (Homo sapiens, UniProt P35414)
unit descriptor: µM
result: 27.3

I: CCC(CC)n1c(Cc2cccs2)nc2cc(C(=O)N[C@@H](CC(C)C)C(=O)NCCSC)ccc21
II: CCC(CC)n1c(CC2CCCC2)nc2cc(C(=O)NC3(CO)CCCC3)ccc21
Sorting ascending by EC50, which comes first: I or II ? Selection: enter the item's label.
I
(I: 1.33 µM, II: 25.2 µM)

====

system: human apelin receptor (Homo sapiens, UniProt P35414)
Construct: expressed in transfected cells
Sequence (P35414 1-380): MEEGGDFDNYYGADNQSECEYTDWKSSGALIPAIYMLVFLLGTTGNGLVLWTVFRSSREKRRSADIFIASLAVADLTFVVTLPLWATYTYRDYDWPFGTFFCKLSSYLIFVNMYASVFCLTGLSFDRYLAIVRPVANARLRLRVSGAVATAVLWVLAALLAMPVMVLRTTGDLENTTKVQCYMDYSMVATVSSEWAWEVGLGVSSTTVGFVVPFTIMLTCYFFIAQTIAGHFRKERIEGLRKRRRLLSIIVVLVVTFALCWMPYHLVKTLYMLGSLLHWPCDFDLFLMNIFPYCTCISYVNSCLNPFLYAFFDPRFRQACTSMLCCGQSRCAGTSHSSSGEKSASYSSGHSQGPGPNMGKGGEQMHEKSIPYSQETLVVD
assay comment: Determination of agonism on the human apelin receptor by a calcium fluorescence assay (FLIPR)
Format: cell-based
setup conditions: HEK293 cells stably transfected with human apelin receptor and Giaq protein, Fluo-4 calcium fluorescence, read-out: EC50 (APJ agonism)
quantity measured: EC50 (nM)

compound: CCC(CC)n1c(Cc2cccs2)nc2cc(C(=O)N[C@@H](CC(C)C)C(=O)N3CCC(O)C3)ccc21 (stereo partly shown)
EC50 (nM): 708
//
compound: CCC(CC)n1c(Cc2cccs2)nc2cc(C(=O)N[C@@H](CC(C)C)C(=O)N(C)C)ccc21
EC50 (nM): 389
//
compound: CCC(CC)n1c(Cc2cccs2)nc2cc(C(=O)N[C@@H](CC(C)C)C(=O)NCCCOCC3CCCO3)ccc21 (stereo partly shown)
EC50 (nM): 1590
//
compound: CCC(C)Cn1c(Cc2ccsc2)nc2cc(C(=O)N[C@@H](CC(C)C)C(=O)O)ccc21 (stereo partly shown)
EC50 (nM): 9500

P: CCC(CC)n1c(Cc2cccs2)nc2cc(C(=O)NC(CC(=O)O)CC3CCCCC3)ccc21 (single isomer, unassigned) [Example 455]
Q: CCC(C)n1c(Cc2cccs2)nc2cc(C(=O)N[C@@H](CC3CCCCC3)C(=O)O)ccc21 (stereo partly shown)
I need your help: which of the pair P , Q has higher EC50? Selection: enter the item's label.
Q
(Q: 3800 nM, P: 160 nM)

Hello, the source for this data is patent US9156796B2, in case you need it.
